- target_entity: ScSte2 (Saccharomyces cerevisiae, UniProt D6VTK4)
- Construct: we cloned codon-optimized open reading frames (ORFs) of all 5 proteases and GPCRs; pTDH3-ScSTE2 genome-integrated)
- Sequence (D6VTK4 whole entry): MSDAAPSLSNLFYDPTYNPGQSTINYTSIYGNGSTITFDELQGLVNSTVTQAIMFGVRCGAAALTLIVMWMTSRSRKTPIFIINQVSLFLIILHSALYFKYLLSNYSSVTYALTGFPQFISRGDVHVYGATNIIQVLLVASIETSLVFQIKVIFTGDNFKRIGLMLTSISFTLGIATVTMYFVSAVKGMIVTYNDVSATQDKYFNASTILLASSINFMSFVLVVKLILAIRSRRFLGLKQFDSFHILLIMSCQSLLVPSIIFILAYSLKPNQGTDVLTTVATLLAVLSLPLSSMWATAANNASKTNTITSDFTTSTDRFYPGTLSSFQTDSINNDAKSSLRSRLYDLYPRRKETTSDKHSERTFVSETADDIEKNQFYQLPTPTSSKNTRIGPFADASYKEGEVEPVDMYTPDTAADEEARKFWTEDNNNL
- assay_comment: cell-based
- condition_details: SEM
pEC50: −log10 of the molar value.
Listing of entries alongside the reported pEC50.

# compound, pEC50
data = [
    ("CSCC[C@H](NC(=O)[C@H](C)NC(=O)[C@H](CCC(N)=O)NC(=O)CNC(=O)[C@@H]1CCCN1C(=O)[C@H](CCCCN)NC(=O)[C@H](CC(C)C)NC(=O)[C@H](CCC(N)=O)NC(=O)[C@H](CC(C)C)NC(=O)[C@H](Cc1c[nH]c2ccccc12)NC(=O)[C@H](Cc1c[nH]cn1)NC(=O)[C@@H](N)Cc1c[nH]c2ccccc12)C(=O)N[C@@H](Cc1ccc(O)cc1)C(=O)O [ScPep11A]", 7.30),
    ("CSCC[C@H](NC(=O)[C@@H]1CCCN1C(=O)[C@H](CCC(N)=O)NC(=O)CNC(=O)[C@@H]1CCCN1C(=O)[C@H](CCCCN)NC(=O)[C@H](CC(C)C)NC(=O)[C@H](C)NC(=O)[C@H](CC(C)C)NC(=O)[C@H](Cc1c[nH]c2ccccc12)NC(=O)[C@H](Cc1c[nH]cn1)NC(=O)[C@@H](N)Cc1c[nH]c2ccccc12)C(=O)N[C@@H](Cc1ccc(O)cc1)C(=O)O [ScPep5A]", 7.30),
    ("CSCC[C@H](NC(=O)[C@@H]1CCCN1C(=O)[C@H](CCC(N)=O)NC(=O)CNC(=O)[C@@H]1CCCN1C(=O)[C@H](CCCCN)NC(=O)[C@H](CC(C)C)NC(=O)[C@H](CCC(N)=O)NC(=O)[C@H](CC(C)C)NC(=O)[C@H](Cc1c[nH]c2ccccc12)NC(=O)[C@H](Cc1c[nH]cn1)NC(=O)[C@@H](N)Cc1c[nH]c2ccccc12)C(=O)N[C@@H](C)C(=O)O [ScPep13A]", 7.20),
]
